Molecular target: ferroportin fused to green fluorescent protein (ECR293/Fpn-GFP cells) (Mus musculus, UniProt Q9JHI9)
Sequence (Q9JHI9 whole entry, the tested form may be a part): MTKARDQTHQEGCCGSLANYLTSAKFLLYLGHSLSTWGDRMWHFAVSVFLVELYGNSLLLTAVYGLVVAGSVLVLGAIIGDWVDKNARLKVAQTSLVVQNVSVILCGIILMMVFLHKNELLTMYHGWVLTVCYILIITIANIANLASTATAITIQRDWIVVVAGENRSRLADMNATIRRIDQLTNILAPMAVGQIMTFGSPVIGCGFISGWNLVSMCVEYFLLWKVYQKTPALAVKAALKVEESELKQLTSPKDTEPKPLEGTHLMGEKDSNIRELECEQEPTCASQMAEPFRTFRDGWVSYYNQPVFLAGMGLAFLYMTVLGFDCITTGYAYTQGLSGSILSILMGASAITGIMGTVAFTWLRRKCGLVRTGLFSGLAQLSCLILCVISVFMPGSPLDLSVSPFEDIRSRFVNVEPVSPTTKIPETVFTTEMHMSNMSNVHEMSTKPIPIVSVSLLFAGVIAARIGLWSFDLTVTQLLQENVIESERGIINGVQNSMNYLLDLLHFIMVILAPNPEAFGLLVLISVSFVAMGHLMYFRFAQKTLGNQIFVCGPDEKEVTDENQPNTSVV
Assay: Flow cytometry of ferroportin-GFP internalization and degradation in ECR293/Fpn-GFP cells
Assay type: cell-based
Conditions: concentration eliciting 50% of maximal loss of fluorescence generated by reference Hep25; 24 hours; read-out: EC50 (the source's name)
Ends that are not written are not given here.
quantity-measured: DC50

Ask: Quick one: DC50 for DTHAPICIF-NH2 [Hep9F4A] ?
Reply: > 3 µM

Ask: Quick one: DC50 for DTHFPIC-NH2 [Hep7] ?
Reply: > 10 µM

Ask: Quick one: DC50 for DTHFPIAIF-NH2 [Hep9-C7A] ?
Reply: > 10 µM

Ask: Quick one: DC50 for DTHFPISIF-NH2 [Hep9-C7S] ?
Reply: > 10 µM
